target: hSTING-WT (Homo sapiens (Human), UniProt Q86WV6, H232R); assay: Radiometric filtration binding competition assay, hSTING-WT
Sequence (Q86WV6 140-379 H232R): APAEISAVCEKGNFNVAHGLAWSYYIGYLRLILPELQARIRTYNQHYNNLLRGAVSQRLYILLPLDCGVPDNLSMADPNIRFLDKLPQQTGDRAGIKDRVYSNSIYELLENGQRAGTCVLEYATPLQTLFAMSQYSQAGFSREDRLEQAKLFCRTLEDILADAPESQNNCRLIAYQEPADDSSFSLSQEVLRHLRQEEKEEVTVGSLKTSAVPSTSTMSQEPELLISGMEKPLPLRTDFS
pIC50: −log10 of the molar value.
measured_quantity: pIC50

>>> print(df.to_string())
                                  structure                             tested_target  value_reported
0  COc1ccccc1Nc1ccc2c(=O)c3ccc(Cl)c(OC)c3n(CC(=O)O)c2c1  hSTING-WT (Homo sapiens (Human), UniProt Q86WV6, H232R)    4.00 to 4.70
1  C#Cc1c(Cl)ccc2c(=O)c3ccccc3n(CC(=O)O)c12  hSTING-WT (Homo sapiens (Human), UniProt Q86WV6, H232R)          < 3.52
2  CC(C)c1ccc(-c2ccc3c(c2)c(=O)c2ccc(Cl)c(Br)c2n3CC(=O)O)cc1  hSTING-WT (Homo sapiens (Human), UniProt Q86WV6, H232R)    4.00 to 4.70
3  Cc1ccc2c(=O)c3ccc(Cl)c(Br)c3n(CC(=O)O)c2c1  hSTING-WT (Homo sapiens (Human), UniProt Q86WV6, H232R)    4.00 to 4.70
4  CC(C)(C)c1ccc2c(=O)c3ccc(Cl)c(Br)c3n(CC(=O)O)c2c1  hSTING-WT (Homo sapiens (Human), UniProt Q86WV6, H232R)    4.00 to 4.70

hSTING-WT (Homo sapiens (Human), UniProt Q86WV6, H232R) pIC50 of "O=C(O)Cn1c2cc(NCCN3CCc4ccccc43)ccc2c(=O)c2ccc(Cl)c(Cl)c21" is 3.52 to 4.00

hSTING-WT (Homo sapiens (Human), UniProt Q86WV6, H232R) pIC50 of "O=C(O)Cn1c2cc(C3CCCCC3)ccc2c(=O)c2ccc(Cl)c(Cl)c21" is 4.00 to 4.70

hSTING-WT (Homo sapiens (Human), UniProt Q86WV6, H232R) pIC50 of "CC(C)Oc1c(Cl)ccc2c(=O)c3ccccc3n(CC(=O)O)c12" is 3.52 to 4.00
